target: 5-HT2 (Homo sapiens, UniProt P28223)
Sequence (P28223 whole entry, species assumed): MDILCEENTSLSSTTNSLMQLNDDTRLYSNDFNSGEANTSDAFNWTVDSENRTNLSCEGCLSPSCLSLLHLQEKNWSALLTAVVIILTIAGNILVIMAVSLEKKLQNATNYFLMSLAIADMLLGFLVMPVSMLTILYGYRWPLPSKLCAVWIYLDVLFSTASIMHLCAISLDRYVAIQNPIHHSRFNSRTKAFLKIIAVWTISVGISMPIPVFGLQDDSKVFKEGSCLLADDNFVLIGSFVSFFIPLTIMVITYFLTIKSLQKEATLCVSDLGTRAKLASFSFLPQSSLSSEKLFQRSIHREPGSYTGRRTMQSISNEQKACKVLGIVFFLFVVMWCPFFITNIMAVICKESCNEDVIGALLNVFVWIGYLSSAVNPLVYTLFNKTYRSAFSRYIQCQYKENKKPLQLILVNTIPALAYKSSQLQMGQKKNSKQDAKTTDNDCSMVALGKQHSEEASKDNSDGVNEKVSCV
pKi: −log10 of the molar value.
pKi by entry:
property_name: pKi

INSERT INTO assay_data (molecule, property_name, recorded_value) VALUES
  ('CCNC(=O)N1CCN(CCCC(c2ccc(F)cc2)c2ccc(F)cc2)CC1 [Amperozide]', 'pKi', 7.77),
  ('COC(=O)c1cccnc1N1CCN(CCCC(c2ccc(F)cc2)c2ccc(F)cc2)CC1', 'pKi', 8.40);

----------
biological target: 5-HT1A (Homo sapiens, UniProt P08908); assay: biochemical; format: binding; conditions: Radioligand 3H-8-OH-DPAT; tissue hippocampus
Sequence (P08908 whole entry, species assumed): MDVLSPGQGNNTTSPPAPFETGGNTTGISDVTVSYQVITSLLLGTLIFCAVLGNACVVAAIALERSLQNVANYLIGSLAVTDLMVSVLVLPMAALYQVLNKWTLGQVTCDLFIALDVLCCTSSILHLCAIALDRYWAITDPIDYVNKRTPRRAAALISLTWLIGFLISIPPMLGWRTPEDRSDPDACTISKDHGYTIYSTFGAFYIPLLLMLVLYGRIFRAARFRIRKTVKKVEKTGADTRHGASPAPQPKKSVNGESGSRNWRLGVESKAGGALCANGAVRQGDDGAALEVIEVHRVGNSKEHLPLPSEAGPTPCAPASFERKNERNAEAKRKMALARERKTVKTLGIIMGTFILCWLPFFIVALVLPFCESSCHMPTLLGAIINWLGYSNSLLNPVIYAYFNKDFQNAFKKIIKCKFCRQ
pKi: −log10 of the molar value.
property_name: pKi

INSERT INTO results (record_smiles, property_name, recorded_value) VALUES
  ('COC(=O)c1cccnc1N1CCN(CCCC(c2ccc(F)cc2)c2ccc(F)cc2)CC1', 'pKi', 9.15);

Data origin: patent US5565455A
